ASSAY INFO: self-splicing fitness, log relative to wild type (ln ratio); higher = more splicing; Tetrahymena group I intron in knt gene, E. coli kanamycin selection, DiMSum; sequences stand for … in CUCUCU…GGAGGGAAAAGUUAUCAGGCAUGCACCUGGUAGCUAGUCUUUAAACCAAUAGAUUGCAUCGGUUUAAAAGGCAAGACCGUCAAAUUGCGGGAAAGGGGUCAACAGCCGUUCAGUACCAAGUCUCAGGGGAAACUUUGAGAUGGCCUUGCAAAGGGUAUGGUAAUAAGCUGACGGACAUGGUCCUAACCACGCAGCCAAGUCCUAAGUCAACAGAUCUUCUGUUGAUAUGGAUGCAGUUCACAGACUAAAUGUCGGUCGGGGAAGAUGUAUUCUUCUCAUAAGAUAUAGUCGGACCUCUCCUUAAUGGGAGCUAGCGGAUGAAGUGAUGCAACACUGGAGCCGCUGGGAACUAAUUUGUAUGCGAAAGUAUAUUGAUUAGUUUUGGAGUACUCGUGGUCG;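 further: selection with 25 µg/mL kanamycin versus none on LB agar overnight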
EXPERIMENTAL PARAMETERS: 37 °C
self-splicing fitness (ln) values by entry
REPORTED ENDPOINT: self-splicing fitness (ln)

INSERT INTO results (seq, measured_value) VALUES
  ('CGCCAGCAAUAUUACGUCCG', -0.546),
  ('CAUUAGCAAUAUUACGUUGG', -1.03),
  ('UCGUAGCAAUAUUACGCCGA', -2.03),
  ('UAGUAGCAAUAUUACGAGAA', -1.76),
  ('GCGUAGCAAUAUUACGUCGG', -3.18),
  ('ACCAAGCAAUAUUACGUGGG', -2.4),
  ('GUCGAGCAAUAUUACGGCAC', -0.213),
  ('CGCCAGCAAUAUUACGGGUA', -0.377),
  ('GUCCAGCAAUAUUACGCAAA', -0.457),
  ('GGAUAGCAAUAUUACGCCGA', -0.0698),
  ('CGAAAGCAAUAUUACGGAUC', -2.02),
  ('UCACAGCAAUAUUACGUACA', -0.549),
  ('AGUCAGCAAUAUUACGUUCA', -0.803),
  ('AAGCAGCAAUAUUACGAAAG', -2.29),
  ('AGAUAGCAAUAUUACGUGUA', -1.82),
  ('CGCUAGCAAUAUUACGUGCU', -1.63);

====

self-splicing fitness (ln) values by entry
ASSAY INFO: self-splicing fitness, log relative to wild type (ln ratio); higher = more splicing; Tetrahymena group I intron in knt gene, E. coli kanamycin selection, DiMSum; sequences stand for … in CUCUCU…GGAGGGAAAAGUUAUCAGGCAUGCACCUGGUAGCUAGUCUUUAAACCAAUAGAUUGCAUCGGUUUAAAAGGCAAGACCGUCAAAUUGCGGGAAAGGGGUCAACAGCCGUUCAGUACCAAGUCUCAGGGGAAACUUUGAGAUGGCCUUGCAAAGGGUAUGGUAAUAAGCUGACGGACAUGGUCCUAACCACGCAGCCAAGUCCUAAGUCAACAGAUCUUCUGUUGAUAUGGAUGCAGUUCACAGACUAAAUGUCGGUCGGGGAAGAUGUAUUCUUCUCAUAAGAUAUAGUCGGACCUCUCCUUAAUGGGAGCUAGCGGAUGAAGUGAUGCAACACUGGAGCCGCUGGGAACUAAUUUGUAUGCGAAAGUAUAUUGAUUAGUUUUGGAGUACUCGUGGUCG
EXPERIMENTAL PARAMETERS: 30 °C
REPORTED ENDPOINT: self-splicing fitness (ln)

INSERT INTO results (seq, reported_endpoint, measured_value) VALUES
  ('GACUAGCAAUAUUACGCUUG', 'self-splicing fitness (ln)', -1.96),
  ('GCGUAGCAAUAUUACGGGAA', 'self-splicing fitness (ln)', -1.38),
  ('GAGUAGCAAUAUUACGUAGA', 'self-splicing fitness (ln)', -4.32),
  ('GCUAAGCAAUAUUACGGUGU', 'self-splicing fitness (ln)', -2.48),
  ('UAUUAGCAAUAUUACGGCUU', 'self-splicing fitness (ln)', -1.35),
  ('UGCGAGCAAUAUUACGGACA', 'self-splicing fitness (ln)', -0.643),
  ('CGCGAGCAAUAUUACGCCUG', 'self-splicing fitness (ln)', -2.95),
  ('GUCCAGCAAUAUUACGACAU', 'self-splicing fitness (ln)', -0.524),
  ('AAAUAGCAAUAUUACGUGGU', 'self-splicing fitness (ln)', -3.87),
  ('CCCUAGCAAUAUUACGUGGU', 'self-splicing fitness (ln)', -4.61),
  ('CUGAAGCAAUAUUACGGUCA', 'self-splicing fitness (ln)', -1.38),
  ('AGUUAGCAAUAUUACGUUUA', 'self-splicing fitness (ln)', -2.23),
  ('CCGCAGCAAUAUUACGUCCA', 'self-splicing fitness (ln)', -2.28),
  ('CAGAAGCAAUAUUACGCGGC', 'self-splicing fitness (ln)', -0.924),
  ('AUUCAGCAAUAUUACGAUAU', 'self-splicing fitness (ln)', -0.41),
  ('GUGUAGCAAUAUUACGUGAU', 'self-splicing fitness (ln)', -1.59);
